Biological target: T1, angiotensin converting enzyme (ACE) (UniProt P12821)
T1 chain: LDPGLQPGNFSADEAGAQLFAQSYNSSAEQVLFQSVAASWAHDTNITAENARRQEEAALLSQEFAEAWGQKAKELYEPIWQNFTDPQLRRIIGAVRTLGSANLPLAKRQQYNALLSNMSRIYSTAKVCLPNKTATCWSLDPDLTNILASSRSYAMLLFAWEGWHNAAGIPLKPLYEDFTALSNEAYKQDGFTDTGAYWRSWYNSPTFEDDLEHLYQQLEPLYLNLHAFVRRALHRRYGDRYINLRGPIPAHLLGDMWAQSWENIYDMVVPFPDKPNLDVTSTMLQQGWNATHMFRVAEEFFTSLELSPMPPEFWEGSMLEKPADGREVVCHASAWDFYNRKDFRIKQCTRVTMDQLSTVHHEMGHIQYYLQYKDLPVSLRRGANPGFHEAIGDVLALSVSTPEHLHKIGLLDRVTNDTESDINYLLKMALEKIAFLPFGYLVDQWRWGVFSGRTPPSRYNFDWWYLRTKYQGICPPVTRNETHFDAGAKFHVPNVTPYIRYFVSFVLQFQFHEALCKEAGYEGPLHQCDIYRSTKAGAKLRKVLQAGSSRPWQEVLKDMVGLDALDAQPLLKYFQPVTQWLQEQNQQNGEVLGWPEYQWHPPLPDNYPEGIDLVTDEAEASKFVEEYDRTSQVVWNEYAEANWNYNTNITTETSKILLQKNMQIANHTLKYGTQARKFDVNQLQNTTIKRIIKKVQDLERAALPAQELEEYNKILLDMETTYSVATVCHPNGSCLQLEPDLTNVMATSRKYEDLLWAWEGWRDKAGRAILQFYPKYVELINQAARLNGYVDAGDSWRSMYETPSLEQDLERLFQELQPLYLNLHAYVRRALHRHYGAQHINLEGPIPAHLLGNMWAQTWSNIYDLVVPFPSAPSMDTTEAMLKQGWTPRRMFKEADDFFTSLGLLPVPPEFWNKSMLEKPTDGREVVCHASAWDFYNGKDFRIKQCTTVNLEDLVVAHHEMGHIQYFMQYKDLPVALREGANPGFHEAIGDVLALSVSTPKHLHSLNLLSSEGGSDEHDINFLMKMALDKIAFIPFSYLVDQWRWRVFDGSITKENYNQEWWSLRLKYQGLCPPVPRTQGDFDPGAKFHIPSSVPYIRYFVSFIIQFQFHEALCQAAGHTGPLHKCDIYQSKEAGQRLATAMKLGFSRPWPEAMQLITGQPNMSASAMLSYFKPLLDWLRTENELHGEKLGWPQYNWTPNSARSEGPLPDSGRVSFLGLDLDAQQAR
Test: other, ACE inhibition
pIC50: −log10 of the molar value.
I would appreciate it if you labelled entries rule met when pIC50 is 4 or higher, otherwise rule not met.

Reported pIC50 at or above 4? NDEG rule not met

Reported pIC50 at or above 4? WN rule not met

The values you see were collected from patent US8673862.
